Hello, the source for this data is patent US7494997B2, in case you need it.

Reported melting point values for a set of compounds

compound: Cc1ccc(NC(=O)c2ccc(CN3CCN(C)CC3)c(C(F)(F)F)c2)cc1Nc1nccc(-c2cccnc2)n1
melting point: 182 to 183 °C (dec.)
//
compound: Cc1ccc(NC(=O)c2ccc(CN3CCN(C)CC3)c(C#N)c2)cc1Nc1nccc(-c2cccnc2)n1
melting point: 191 to 193 °C (dec.)
//
compound: Cc1ccc(NC(=O)c2ccc(CN3CCCCC3)c(Br)c2)cc1Nc1nccc(-c2cccnc2)n1
melting point: 158 to 159 °C

Lookup: Give reported melting point value for Cc1ccc(NC(=O)c2ccc(CN3CCN(C)CC3)c(C(F)(F)F)c2)cc1Nc1nccc(-c2cncc(Br)c2)n1.Cl
Found: 184 to 187 °C

Lookup: Give reported melting point value for Cc1ccc(NC(=O)c2ccc(CN3CCN(C)CC3)c(Br)c2)cc1Nc1nccc(-c2cccnc2)n1
Found: 202 to 203 °C (dec.)

Lookup: Give reported melting point value for Cc1ccc(NC(=O)c2ccc(CN3CCN(C)CC3)c([N+](=O)[O-])c2)cc1Nc1nccc(-c2cccnc2)n1 (hydrate or solvate)
Found: 184 to 186 °C

Lookup: Give reported melting point value for Cc1ccc(NC(=O)c2ccc(CN3CCN(C)CC3)c(Br)c2)cc1Nc1nccc(-c2cncnc2)n1
Found: 238 to 240 °C (dec.)

---

Reported melting point values for a set of compounds

Answered cases to consult:
compoundStructureString: Cc1ccc(NC(=O)c2ccc(CN3CCN(C)CC3)c(C(F)(F)F)c2)cc1Nc1nccc(-c2cncc(Br)c2)n1
melting point: 171 to 173 °C (dec.)
--
compoundStructureString: Cc1ccc(NC(=O)c2ccc(CN3CCN(C)CC3)c(Br)c2)cc1Nc1cccc(-c2cccnc2)c1
melting point: 174 to 175 °C
--
compoundStructureString: Cc1ccc(NC(=O)c2ccc(CN3CCN(C)CC3)c(Br)c2)cc1Nc1cc(-c2cncnc2)ccn1
melting point: 244 to 246 °C (dec.)

Lookup: Give reported melting point value for Cc1ccc(NC(=O)c2ccc(CN3CCN(C)CC3)c(F)c2)cc1Nc1nccc(-c2cccnc2)n1
Found: 197 to 199 °C (dec.)

---

test system: U937 cells; experiment: Cell growth inhibitory effect, U937 cells (WST-8, 72 hours); conditions: Homo sapiens, U-937, 72 h, read-out: U937 cells (IC50 value: μM)
Reported IC50 values for a set of compounds

compoundStructureString: CCCN1CCN(Cc2ccc(C(=O)Nc3ccc(C)c(Nc4nccc(-c5cccnc5)n4)c3)cc2Br)CC1
targetOfAssay: U937 cells
IC50: 6.97 µM

compoundStructureString: Cc1ccc(NC(=O)c2ccc(CN3CCN(C)CC3)c(Br)c2)cc1Nc1cc(-c2cncnc2)ccn1
targetOfAssay: U937 cells
IC50: 9.1 µM

compoundStructureString: Cc1ccc(NC(=O)c2ccc(CN3CCCN(C)CC3)c(Br)c2)cc1Nc1nccc(-c2cccnc2)n1
targetOfAssay: U937 cells
IC50: 5.22 µM

Lookup: Give reported IC50 value for Cc1ccc(NC(=O)c2ccc(CN3CCN(C)CC3)c(C(F)(F)F)c2)cc1Nc1nccc(-c2cncc(Br)c2)n1
Found: 3.27 µM

Lookup: Give reported IC50 value for Cc1cc(C(=O)Nc2ccc(C)c(Nc3nccc(-c4cccnc4)n3)c2)ccc1CN1CCN(C)CC1
Found: > 10 µM

Lookup: Give reported IC50 value for Cc1ccc(NC(=O)c2ccc(CN3CCN(C)CC3)c(Br)c2)cc1Nc1nccc(-c2cncc(Br)c2)n1
Found: 1.86 µM

Lookup: Give reported IC50 value for Cc1ccc(NC(=O)c2ccc(CN3CCN(C)CC3)c(Br)c2)cc1Nc1nccc(-c2cncnc2)n1
Found: 6.2 µM
